Assayed target: HLA B*0801 (Homo sapiens, UniProt P01889, A93T/A95T/D138N/E176V/E187T/K202T/Q94N/R180D/S35A/V36M/Y33D/Y91F)
Protocol text: biochemical
Where a SMILES comes first, the peptide text is derived from it.

Molecule	IC50 [nM]
CC(C)C[C@H](NC(=O)[C@H](CO)NC(=O)[C@@H](NC(=O)[C@H](CC(C)C)NC(=O)[C@H](CO)NC(=O)[C@H](CCC(N)=O)NC(=O)[C@H](CCCCN)NC(=O)[C@H](CC(N)=O)NC(=O)[C@@H](N)Cc1ccc(O)cc1)C(C)C)C(=O)O [3102.0646] (H-YNKQSLVSL-OH)	30
CC[C@H](C)[C@H](NC(=O)[C@H](CCCNC(=N)N)NC(=O)[C@@H](NC(=O)[C@H](CCCCN)NC(=O)[C@H](CCCCN)NC(=O)[C@@H](N)CO)[C@@H](C)O)C(=O)N[C@@H](CO)C(=O)N[C@@H](CC(=O)O)C(=O)N[C@@H](CC(C)C)C(=O)O [3102.0741] (H-SKKTRISDL-OH)	2.8
CC[C@H](C)[C@H](NC(=O)[C@H](CCCCN)NC(=O)[C@H](CC(N)=O)NC(=O)[C@H](CCCCN)NC(=O)[C@@H](NC(=O)[C@@H](N)Cc1ccccc1)[C@@H](C)CC)C(=O)N[C@@H](Cc1c[nH]cn1)C(=O)N[C@@H](CC(C)C)C(=O)N[C@@H](CC(C)C)C(=O)O [3102.0551] (H-FIKNKIHLL-OH)	0.82
